assay: Straub Tail (ST), oral; settings: mouse, in vivo, mice, high ED50 desired
# ED50 per record follows
outcome_measure: ED50

CN1C[C@@H]2CC=CC[C@]2(c2ccccc2)C1 (relative stereo) = > 162 mg/kg
C=CCN1C[C@@H]2CC=CC[C@]2(c2ccccc2)C1 (relative stereo) = > 200 mg/kg
CC1=C(C)C[C@]2(c3cccc(O)c3)CN(CC3CC3)C[C@H]2C1 (relative stereo) [drawing 69] = > 162 mg/kg
COc1cccc([C@]23CC(C)=C(C)C[C@@H]2CN(CC2CC2)C3)c1 (relative stereo) = > 135 mg/kg
CN1C[C@@H]2CCCC[C@]2(c2ccccc2)C1 (relative stereo) = > 200 mg/kg

* * *

# ED50 per record follows
System: phenylquinone-induced writhing
Test: phenylquinone writhing (PQW) test, analgesic activity, oral, mice
Format: in vivo
Conditions: Mus musculus, fasted female white mice, phenylquinone i.p. at 23 or 30 min, ED50 for 50% of mice
Procedure: A standard procedure for detecting and comparing the analgesic acitivity of the compounds, for which there is good correlation with human efficacy, is the standard phenylquinone writhing (PQW) test modified from Siegmund, et al., Proc. Soc. Exp. Biol. Med. 95, 729 (1957). A test compound suspended in 1% methylcellulose was given orally to fasted (17-21 hours) female white mice, 5-20 animals per double blind test. […]
outcome_measure: ED50

CC1=C(C)C[C@]2(c3cccc(O)c3)CN(CC3CC3)C[C@H]2C1 (relative stereo) [drawing 69] = 120 mg/kg
Oc1cccc([C@]23CC=CC[C@H]2CN(CCc2ccccc2)C3)c1 (relative stereo) [drawing 74] = 19 mg/kg
COc1cccc([C@]23CC=CC[C@H]2CN(CCc2ccccc2)C3)c1 (relative stereo) = 26 mg/kg
C=CCN1C[C@@H]2CC=CC[C@]2(c2ccccc2)C1 (relative stereo) = 140 mg/kg
CN1C[C@@H]2CCCC[C@]2(c2ccccc2)C1 (relative stereo) = 90 mg/kg
CN1C[C@@H]2CC=CC[C@]2(c2ccccc2)C1 (relative stereo) = 32 mg/kg
COc1cccc([C@]23CC(C)=C(C)C[C@@H]2CN(CC2CC2)C3)c1 (relative stereo) = 78 mg/kg
